# assayedTarget: Tubulin beta-1 chain (Homo sapiens)
# Sequence (Q9H4B7 whole entry): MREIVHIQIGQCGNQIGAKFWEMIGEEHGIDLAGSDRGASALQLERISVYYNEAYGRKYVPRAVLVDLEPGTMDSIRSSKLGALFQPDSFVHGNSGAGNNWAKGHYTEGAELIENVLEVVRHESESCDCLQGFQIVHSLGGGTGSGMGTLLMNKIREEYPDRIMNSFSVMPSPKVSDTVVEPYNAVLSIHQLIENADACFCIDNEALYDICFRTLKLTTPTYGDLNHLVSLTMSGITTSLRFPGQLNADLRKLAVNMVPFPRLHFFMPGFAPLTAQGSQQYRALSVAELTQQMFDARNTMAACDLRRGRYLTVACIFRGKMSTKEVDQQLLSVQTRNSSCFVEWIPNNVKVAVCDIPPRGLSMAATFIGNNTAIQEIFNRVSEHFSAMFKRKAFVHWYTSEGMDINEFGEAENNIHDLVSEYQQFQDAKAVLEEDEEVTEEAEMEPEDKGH
# assay: Percent inhibition of tubulin polymerization at 0.3 uM concentration
# Type: functional
Measured inhibition by item
resultType: inhibition (%)

INSERT INTO results (smilescode, assayedtarget, resulttype, reported) VALUES
  ('CCCCCC(C)(C)[C@H](NC)C(=O)N[C@H](C(=O)N(C)[C@H](/C=C(\C)C(=O)O)C(C)C)C(C)(C)C', 'Tubulin beta-1 chain (Homo sapiens)', 'inhibition', 72),
  ('CN[C@H](C(=O)N[C@@H](C(=O)N(C)[C@H](/C=C(\C)C(=O)O)C(C)C)C(C)(C)C)C(C)(C)c1ccccc1', 'Tubulin beta-1 chain (Homo sapiens)', 'inhibition', 1),
  ('CCN[C@H](C(=O)N[C@H](C(=O)N(C)[C@H](/C=C(\C)C(=O)O)C(C)C)C(C)(C)C)C(C)(C)c1ccccc1', 'Tubulin beta-1 chain (Homo sapiens)', 'inhibition', 96),
  ('CCC[C@H](NC(=O)[C@@H](NC)C(C)(C)c1ccccc1)C(=O)N(C)[C@H](/C=C(\C)C(=O)O)C(C)C', 'Tubulin beta-1 chain (Homo sapiens)', 'inhibition', 51),
  ('CN[C@H](C(=O)N[C@H](C(=O)N(C)[C@H](/C=C(\C)C(=O)O)C(C)C)C(C)(C)C)C(C)(C)Cc1ccccc1', 'Tubulin beta-1 chain (Homo sapiens)', 'inhibition', 87),
  ('CN[C@H](C(=O)N[C@H](C(=O)N(C)[C@H](/C=C(\C)C(=O)O)C(C)C)C(C)(C)C)C1(c2ccccc2)CCCCC1', 'Tubulin beta-1 chain (Homo sapiens)', 'inhibition', 5),
  ('C/C(=C\[C@H](C(C)C)N(C)C(=O)[C@@H](NC(=O)[C@@H](NCc1ccccc1)C(C)(C)c1ccccc1)C(C)(C)C)C(=O)O', 'Tubulin beta-1 chain (Homo sapiens)', 'inhibition', 55);
